Test system: CCRF-CEM
Experiment: Cytotoxicity against human CCRF-CEM cells after 72 hrs by XTT assay
Type: functional, cell-based
endpoint_label: IC50 (nM)

> print(dat)
                  compound.structure.string  target.entity   u  value
1  CN(C)CCOc1ccc(NC(=O)Nc2ccc(N(CCCl)CCCl)cc2)cc1.Cl       CCRF-CEM  nM    100
2  Cl.O=C(Nc1ccc(N(CCCl)CCCl)cc1)Nc1cccc(C(=O)NCCN2CCCC2)c1       CCRF-CEM  nM    340
3  CN(C)CCCNC(=O)c1ccc(NC(=O)Nc2ccc(N(CCCl)CCCl)cc2)cc1.Cl       CCRF-CEM  nM    260
4  Cl.O=C(Nc1ccc(N(CCCl)CCCl)cc1)Nc1cccc(C(=O)N2CCC(N3CCCCC3)CC2)c1       CCRF-CEM  nM    280
5  O=C(Nc1ccc(N(CCCl)CCCl)cc1)Nc1cccc(OCCN2CCCC2)c1       CCRF-CEM  nM    350
6  Cl.O=C(Nc1ccc(C(=O)NCCN2CCCC2)cc1)Nc1ccc(N(CCCl)CCCl)cc1       CCRF-CEM  nM    270
7  O=C(Nc1ccc(N(CCCl)CCCl)cc1)Nc1cccc(OCCN2CCCCC2)c1       CCRF-CEM  nM    190
8  Cl.O=C(Nc1ccc(N(CCCl)CCCl)cc1)Nc1cccc(C(=O)NCCN2CCOCC2)c1       CCRF-CEM  nM    580
9  Cl.O=C(Nc1ccc(OCCN2CCOCC2)cc1)Nc1ccc(N(CCCl)CCCl)cc1       CCRF-CEM  nM    350

* * *

Test system: CCRF-CEM
Test: Selectivity ratio of IC50 for taxol-resistant human CCRF-CEM cells to IC50 for human CCRF-CEM cells
Format: functional

compound_structure_string	target_entity	Ratio IC50
CN(C)CCNC(=O)c1ccc(NC(=O)Nc2ccc(N(CCCl)CCCl)cc2)cc1.Cl	CCRF-CEM	21.1
Cl.O=C(Nc1ccc(C(=O)NCCN2CCCCC2)cc1)Nc1ccc(N(CCCl)CCCl)cc1	CCRF-CEM	41.8
CN(C)CCNC(=O)c1cccc(NC(=O)Nc2ccc(N(CCCl)CCCl)cc2)c1.Cl	CCRF-CEM	9.4
CN(C)CCOc1cccc(NC(=O)Nc2ccc(N(CCCl)CCCl)cc2)c1	CCRF-CEM	0.6
CN(C)CCCOc1cccc(NC(=O)Nc2ccc(N(CCCl)CCCl)cc2)c1	CCRF-CEM	6.4
CC[C@]1(O)C[C@@H]2CN(CCc3c([nH]c4ccccc34)[C@@](C(=O)OC)(c3cc4c(cc3OC)N(C)[C@H]3[C@@](O)(C(=O)OC)[C@H](OC(C)=O)[C@]5(CC)C=CCN6CC[C@]43[C@@H]65)C2)C1	CCRF-CEM	106.2
Cl.O=C(Nc1ccc(N(CCCl)CCCl)cc1)Nc1cccc(C(=O)NCCN2CCCCC2)c1	CCRF-CEM	17
O=C(Nc1ccc(N(CCCl)CCCl)cc1)Nc1cccc(OCCN2CCCCC2)c1	CCRF-CEM	3

* * *

List of IC50 values.
Test system: CCRF-CEM
Experiment: Cytotoxicity against human CCRF-CEM cells after 72 hrs by XTT assay
Assay type: functional, cell-based

compound_structure_string	target_entity	IC50 [nM]
CN(C)CCCOc1cccc(NC(=O)Nc2ccc(N(CCCl)CCCl)cc2)c1	CCRF-CEM	320
Cl.O=C(Nc1ccc(C(=O)NCCN2CCCCC2)cc1)Nc1ccc(N(CCCl)CCCl)cc1	CCRF-CEM	360
Cl.O=C(Nc1ccc(C(=O)NCCN2CCOCC2)cc1)Nc1ccc(N(CCCl)CCCl)cc1	CCRF-CEM	730
Cl.O=C(Nc1ccc(C(=O)N2CCC(N3CCCCC3)CC2)cc1)Nc1ccc(N(CCCl)CCCl)cc1	CCRF-CEM	220
O=C(Nc1ccc(N(CCCl)CCCl)cc1)Nc1cccc(OCCN2CCOCC2)c1	CCRF-CEM	410
Cl.O=C(Nc1ccc(OCCN2CCCCC2)cc1)Nc1ccc(N(CCCl)CCCl)cc1	CCRF-CEM	120
Cl.O=C(Nc1ccc(OCCN2CCCC2)cc1)Nc1ccc(N(CCCl)CCCl)cc1	CCRF-CEM	140
CC(=O)O[C@H]1C(=O)[C@@]2(C)[C@H]([C@H](OC(=O)c3ccccc3)[C@]3(O)C[C@H](OC(=O)[C@H](O)[C@@H](NC(=O)c4ccccc4)c4ccccc4)C(C)=C1C3(C)C)[C@]1(OC(C)=O)CO[C@@H]1C[C@@H]2O	CCRF-CEM	3
CN(C)CCNC(=O)c1cccc(NC(=O)Nc2ccc(N(CCCl)CCCl)cc2)c1.Cl	CCRF-CEM	130
CN(C)CCCNC(=O)c1cccc(NC(=O)Nc2ccc(N(CCCl)CCCl)cc2)c1.Cl	CCRF-CEM	290
CN(C)CCOc1cccc(NC(=O)Nc2ccc(N(CCCl)CCCl)cc2)c1	CCRF-CEM	1320
CN(C)CCNC(=O)c1ccc(NC(=O)Nc2ccc(N(CCCl)CCCl)cc2)cc1.Cl	CCRF-CEM	230
Cl.O=C(Nc1ccc(N(CCCl)CCCl)cc1)Nc1cccc(C(=O)NCCN2CCCCC2)c1	CCRF-CEM	270
CN(C)CCCOc1ccc(NC(=O)Nc2ccc(N(CCCl)CCCl)cc2)cc1.Cl	CCRF-CEM	120
CC[C@]1(O)C[C@@H]2CN(CCc3c([nH]c4ccccc34)[C@@](C(=O)OC)(c3cc4c(cc3OC)N(C)[C@H]3[C@@](O)(C(=O)OC)[C@H](OC(C)=O)[C@]5(CC)C=CCN6CC[C@]43[C@@H]65)C2)C1	CCRF-CEM	0.7

* * *

Test system: MCF7
Assay: Cytotoxicity against human MCF7 cells after 72 hrs by alamar blue assay
Assay type: functional, cell-based
Settings: MCF7, 72 h
List of IC50 values.
endpoint_label: IC50 (µM)

> print(dat)
                  compound.structure.string   u  value
1  Cl.O=C(Nc1ccc(N(CCCl)CCCl)cc1)Nc1cccc(C(=O)NCCN2CCCCC2)c1  µM   1.18
2  Cl.O=C(Nc1ccc(OCCN2CCCCC2)cc1)Nc1ccc(N(CCCl)CCCl)cc1  µM   1.24
3  CN(C)CCCOc1ccc(NC(=O)Nc2ccc(N(CCCl)CCCl)cc2)cc1.Cl  µM   1.32
4  CN(C)CCOc1ccc(NC(=O)Nc2ccc(N(CCCl)CCCl)cc2)cc1.Cl  µM   1.25

* * *

Test system: CCRF-CEM
Experiment: Selectivity ratio of IC50 for taxol-resistant human CCRF-CEM cells to IC50 for human CCRF-CEM cells
Type: functional
List of Ratio IC50 values.
endpoint_label: Ratio IC50

compound	target_entity	value
Cl.O=C(Nc1ccc(N(CCCl)CCCl)cc1)Nc1cccc(C(=O)NCCN2CCCC2)c1	CCRF-CEM	73.7
Cl.O=C(Nc1ccc(C(=O)NCCN2CCOCC2)cc1)Nc1ccc(N(CCCl)CCCl)cc1	CCRF-CEM	27.1
CN(C)CCCNC(=O)c1ccc(NC(=O)Nc2ccc(N(CCCl)CCCl)cc2)cc1.Cl	CCRF-CEM	77.5
CN(C)CCOc1ccc(NC(=O)Nc2ccc(N(CCCl)CCCl)cc2)cc1.Cl	CCRF-CEM	7.6
Cl.O=C(Nc1ccc(C(=O)N2CCC(N3CCCCC3)CC2)cc1)Nc1ccc(N(CCCl)CCCl)cc1	CCRF-CEM	91.4
CC(=O)O[C@H]1C(=O)[C@@]2(C)[C@H]([C@H](OC(=O)c3ccccc3)[C@]3(O)C[C@H](OC(=O)[C@H](O)[C@@H](NC(=O)c4ccccc4)c4ccccc4)C(C)=C1C3(C)C)[C@]1(OC(C)=O)CO[C@@H]1C[C@@H]2O [PACLITAXEL]	CCRF-CEM	330
